- ASSAY NOTES: OD615 S. cerevisiae growth inhibition, permissive medium, pilot counter-assay, permissive growth control for S. cerevisiae lifespan shortening project (AID 705)
- RECORDED CONDITIONS: OD615, 24 h, at 10 µM, stronger effect = higher value
ASSAY METRIC: growth inhibition (%)

molecule=N#Cc1ccc(N2CCN(C(=O)c3cccc(F)c3)CC2)c(F)c1 data_value=6.81
molecule=COCCSc1nc2c(c(=O)[nH]c(=O)n2C)n1Cc1cccc(C)c1 data_value=0.55
molecule=O=C1Cc2ccccc2C(=O)N1CCc1ccccc1 data_value=12.3
molecule=Cc1ccc(-c2noc(CSc3nnnn3C3CCCCC3)n2)cc1 data_value=-16.1
molecule=CCOC(=O)c1sc(NC(=O)c2ccco2)nc1-c1ccccc1 data_value=-1.62
molecule=COc1ccc(S(=O)(=O)N2CCC(C(=O)N3CCN(c4ccccc4OC)CC3)CC2)cc1 data_value=-8.7
molecule=COc1ccc(OC)c(NC(=O)c2cnc3n(c2=O)CCS3)c1 data_value=-1.9
molecule=CCc1c(C)nc(SCC(=O)Nc2ccc(Br)cc2)[nH]c1=O data_value=-11.9
molecule=Cn1c(NC(=O)Cc2ccc(F)cc2)cc(=O)n(C)c1=O data_value=-5.41
molecule=S=c1nc(-c2ccccc2)n(CCCN2CCOCC2)c2c1CCCC2 data_value=-2.74
molecule=CNC(=O)c1ccc(-c2sc3nc(N4CCOCC4)c4c(c3c2N)CCCC4)o1 data_value=0.875
molecule=CN1CCc2c(sc3c2c(=O)n(-c2ccc(Cl)cc2)c2nncn32)C1 data_value=-12.1
molecule=O=C(Oc1c(Cl)cc(Cl)c2cccnc12)N1CCCCC1 data_value=-11.5
molecule=O=C(NCCCN1CCc2ccccc2C1)C1CCN(c2nnc(-n3cccc3)s2)CC1 data_value=2.54
molecule=Cc1ccc(-n2c(SCC(N)=O)nc3c([nH]c4ccccc43)c2=O)cc1 data_value=-15.5
molecule="COC(=O)C1C2C=CC3(CN(C(C)C)C(=O)C13)O2 (stereo not drawn)" data_value=-11.7
molecule=CCOC(=O)CNC(=O)c1cn(CC)c(=O)c2cc(OC)c(OC)cc12 data_value=-14.4
molecule=CN(C)/C=N/c1c(C#N)cnn1-c1ccccc1 data_value=-5.88
molecule="CCCCOc1ccc(NC(=O)C2CC=CCC2C(=O)O)cc1 (stereo not drawn)" data_value=-5.44
molecule=CCNc1cc2oc(=O)c(CN3CCOCC3)c(C)c2cc1C data_value=4.16
molecule="O=C1CC(c2nc3ccccc3[nH]2)CN1c1ccccc1F (stereo not drawn)" data_value=3.64
molecule=N#Cc1nc(-c2ccccc2F)oc1NCCN1CCOCC1 data_value=-19.2
molecule=CCOCCCNC(=O)c1cn(C)c2ccc(S(=O)(=O)N(C)C3CCCCC3)cc2c1=O data_value=-5.04

----------
- ASSAY NOTES: reducers of endogenous Her2 protein level, primary screen, SKBR3 breast tumor cells, AlphaScreen, ATP viability (AID 461);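 note: percent of carrier control wells set as 100% viability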
- RECORDED CONDITIONS: 18-24 h, measured here: SKBR3 viability, ATP luminescence, at 10 µM
This section presents compounds with their documented viability values.
ASSAY METRIC: viability (%)

compound=COc1ccc2cc(C#N)c(SCC(=O)N3CCCC3)nc2c1 data_value=97
compound="O=C(Nc1ncc(Br)s1)C1CCCN1S(=O)(=O)c1cccc2cccnc12 (stereo unspecified)" data_value=93
compound=COc1ccccc1CNS(=O)(=O)c1ccc(NC(C)=O)cc1 data_value=94.5
compound="CCCn1c(O)c(CN2CCCC(C)C2)c(C)c(C#N)c1=O (stereo unspecified)" data_value=102
compound="CC(C)C(NC(=O)OCc1ccccc1)C(=O)OCC(=O)NCc1ccco1 (stereo unspecified)" data_value=100
compound="CCOc1ccccc1NC(=O)N1C2CCCC1CC(NC(=O)C1CC1)C2 (stereo unspecified)" data_value=102
